- target under test: recombinant human AKR1C3 (Aldo-keto reductase family 1 member C3) (Homo sapiens)
- Construct: GST (cleaved yes)
- Sequence (P42330 1-323): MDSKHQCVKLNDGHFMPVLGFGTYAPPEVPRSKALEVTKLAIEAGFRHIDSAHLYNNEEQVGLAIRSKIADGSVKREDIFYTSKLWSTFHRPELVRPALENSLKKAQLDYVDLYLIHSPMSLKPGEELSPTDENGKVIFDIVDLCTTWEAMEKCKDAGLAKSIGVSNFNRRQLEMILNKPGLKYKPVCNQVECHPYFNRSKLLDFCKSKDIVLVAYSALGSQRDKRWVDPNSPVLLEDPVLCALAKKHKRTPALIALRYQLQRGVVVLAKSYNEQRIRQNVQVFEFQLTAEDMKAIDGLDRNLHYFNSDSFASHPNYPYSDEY
- method description: In Vitro Assay 1: AKR1C3-inhibitory activity (Coumberone to Coumberol fluorescence assay)
- test context: recombinant enzyme, Coumberone 0.3 μM, NADPH 10 μM, 15 min pre-incubation, 4-parameter fit; average or median values
pIC50: −log10 of the molar value.
endpoint name: pIC50

Problem: Report pIC50 for O=C(c1cnn[nH]1)N1C[C@@H]2[C@H](C1)[C@H]1CC[C@@H]2N1S(=O)(=O)c1ccc([N+](=O)[O-])cc1 [Example 32] please.
Result: 6.38

Problem: # get_value(readout='pIC50', item= O=C(c1cnn[nH]1)N1C[C@@H]2[C@H](C1)[C@H]1CC[C@@H]2N1S(=O)(=O)c1cccc(F)c1Cl [Example 64] )
Result: 7.92

P. COc1ccccc1S(=O)(=O)N1[C@@H]2CC[C@H]1[C@@H]1CN(C(=O)c3cnn[nH]3)C[C@@H]12 [Example 54]
Q. COc1ccc(OC)c(S(=O)(=O)N2[C@@H]3CC[C@H]2[C@@H]2CN(C(=O)c4cnn[nH]4)C[C@@H]23)c1 [Example 36]
R. O=C(c1cnn[nH]1)N1C[C@@H]2[C@H](C1)[C@@H]1CC[C@H]2N1S(=O)(=O)c1ccc(F)cc1 [Example 22]
S. O=C(c1cnn[nH]1)N1C[C@@H]2[C@H](C1)[C@H]1CC[C@@H]2N1S(=O)(=O)c1cc(F)ccc1Cl [Example 63]
T. Cc1ccc(S(=O)(=O)N2[C@@H]3CC[C@H]2[C@H]2CN(C(=O)c4cnn[nH]4)C[C@H]23)cc1 [Example 21]
Problem: Arrange the 5 molecules from largest to smallest pIC50. Note for the reader: the ranking is given by listing the labels in the order requested.
Result: S, P, R, T, Q
